- Measurement target: Replicative DNA helicase DnaB (Mycobacterium tuberculosis, UniProt P9WMR3)
- Sequence (P9WMR3 whole entry): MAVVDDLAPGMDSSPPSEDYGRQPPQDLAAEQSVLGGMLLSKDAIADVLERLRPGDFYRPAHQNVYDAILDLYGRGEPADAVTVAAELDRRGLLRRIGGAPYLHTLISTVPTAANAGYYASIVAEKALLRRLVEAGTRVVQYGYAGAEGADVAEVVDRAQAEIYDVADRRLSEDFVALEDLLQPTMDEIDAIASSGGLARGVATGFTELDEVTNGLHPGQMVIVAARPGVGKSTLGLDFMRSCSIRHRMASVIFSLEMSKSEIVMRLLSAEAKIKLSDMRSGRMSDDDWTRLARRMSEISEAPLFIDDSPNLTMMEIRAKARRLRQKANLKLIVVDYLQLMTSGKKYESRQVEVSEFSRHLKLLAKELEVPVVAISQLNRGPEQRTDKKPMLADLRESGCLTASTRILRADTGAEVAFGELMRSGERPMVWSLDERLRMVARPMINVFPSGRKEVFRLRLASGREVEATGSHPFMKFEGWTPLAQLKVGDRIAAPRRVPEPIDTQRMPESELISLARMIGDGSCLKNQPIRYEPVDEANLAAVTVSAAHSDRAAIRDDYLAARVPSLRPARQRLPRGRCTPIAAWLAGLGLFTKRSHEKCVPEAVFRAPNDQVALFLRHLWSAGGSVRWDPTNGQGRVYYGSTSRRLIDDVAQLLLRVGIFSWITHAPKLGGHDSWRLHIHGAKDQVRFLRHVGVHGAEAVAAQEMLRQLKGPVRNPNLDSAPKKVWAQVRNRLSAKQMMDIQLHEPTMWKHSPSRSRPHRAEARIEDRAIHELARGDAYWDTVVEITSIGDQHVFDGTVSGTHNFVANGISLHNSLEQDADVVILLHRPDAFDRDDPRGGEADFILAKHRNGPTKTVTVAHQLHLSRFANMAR
- Experiment summary: DnaB intein splicing inhibitors, dose response, biochemical, cell-free fluorescence (AID 449749)
- Assay type: functional
The source made the active and inactive calls. Cut-off read from the data, not from the text of the source: actives have a measured AC50 and inactives only a lower limit.
Reply using exactly one outcome from active, inactive

Cc1ccc(C)c(N/C([S-])=C(/C(=O)c2ccc(OC(F)F)cc2)[n+]2ccccc2)c1	active

Per the records of this test, what outcome belongs to O=C(c1c[nH]c(C(=O)C(Cl)(Cl)Cl)c1)c1ccccc1Br ?
active

Per the records of this test, what outcome belongs to O=[N+]([O-])c1ccc(Oc2ccc(F)cc2)c2ccncc12 ?
inactive

Per the records of this test, what outcome belongs to CN(C(=O)c1ccc(S(=O)(=O)c2cccc(Cl)c2)c([N+](=O)[O-])c1)C1CCCCC1 ?
active

Per the records of this test, what outcome belongs to C/C(CC(=O)Nc1cc(C)ccn1)=N\NC(=O)c1ccccc1C ?
active

Per the records of this test, what outcome belongs to CCCCCCOC(=O)c1ccc(OC(=O)c2cccnc2)cc1 ?
active

Per the records of this test, what outcome belongs to Cc1ccc(NC(=O)COc2cccc(/C=C3\SC(=S)N(CCC(=O)O)C3=O)c2)cc1Cl ?
active

Per the records of this test, what outcome belongs to O=C(NC1CCCCC1)C(c1cccnc1)N(C(=O)CCl)c1cccc(Cl)c1 (stereo unspecified) ?
active

Per the records of this test, what outcome belongs to COc1cc(Br)c(C2C(C#N)=C(N)Oc3[nH]nc(-c4cccnc4)c32)cc1OC (stereo unspecified) ?
active
